Data provenance: ChEMBL document CHEMBL4311945

method summary: Solubility of the compound in water
Format: physicochemical
property measured: solubility

1) Nc1nnc(N2CCC(N3CCOC[C@@H]3Cc3ccc(Cl)cc3)CC2)[nH]1 ... 310 µg/mL

====

method summary: Half-life in Sprague-Dawley rat at 10 mg/kg, po measured upto 12 hrs by LC/MS/MS analysis
Assay type: ADME, organism-based
particulars: in vivo
property measured: half-life

1) Nc1nnc(N2CCC(N3CCOC[C@@H]3Cc3ccc(Cl)cc3)CC2)[nH]1 ... 2.14 h

====

method summary: Cmax in Sprague-Dawley rat at 10 mg/kg, po measured upto 12 hrs by LC/MS/MS analysis
Format: ADME, organism-based
Parameters: dose 10 mg/kg, route oral
particulars: in vivo
property measured: Cmax (ng/mL)

1) Nc1nnc(N2CCC(N3CCOC[C@@H]3Cc3ccc(Cl)cc3)CC2)[nH]1 ... 1560

====

method summary: Cmax in BALB/c mouse at 10 mg/kg, po measured after 24 hrs by LC/MS/MS analysis
Assay type: ADME, organism-based
Design: dose 10 mg/kg, route oral
particulars: in vivo
property measured: Cmax (ng/mL)

1. Nc1nnc(N2CCC(N3CCOC[C@@H]3Cc3ccc(Cl)cc3)CC2)[nH]1 ... 2390

====

system: Chitotriosidase-1 (Mus musculus)
Sequence (Q9D7Q1 whole entry): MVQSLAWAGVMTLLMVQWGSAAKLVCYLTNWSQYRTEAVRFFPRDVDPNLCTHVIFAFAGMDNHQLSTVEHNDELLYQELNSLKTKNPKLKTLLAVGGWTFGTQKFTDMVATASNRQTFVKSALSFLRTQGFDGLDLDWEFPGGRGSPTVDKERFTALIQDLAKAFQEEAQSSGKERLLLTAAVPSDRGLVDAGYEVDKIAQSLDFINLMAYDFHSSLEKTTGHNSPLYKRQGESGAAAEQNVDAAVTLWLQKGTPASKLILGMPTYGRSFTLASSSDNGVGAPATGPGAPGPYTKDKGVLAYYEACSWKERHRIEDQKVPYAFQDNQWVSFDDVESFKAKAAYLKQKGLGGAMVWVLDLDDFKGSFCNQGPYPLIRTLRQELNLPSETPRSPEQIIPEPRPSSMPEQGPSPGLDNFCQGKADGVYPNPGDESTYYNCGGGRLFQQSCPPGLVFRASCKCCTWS
method summary: Inhibition of full-length C-terminal his-tagged mouse CHIT1 expressed in CHO-K1 cells assessed as reduction in chitinolytic activity using 4-methylumbelliferyl-beta-D-N,N',N\"-triacetylchitotrioside as substrate after 60 mins by fluorometric assay
pIC50: −log10 of the molar value.
Please enter fulfilled where pIC50 is greater than or equal to 5, and not fulfilled where it is lower.

1) CO[C@@H]1C[C@H](Cc2ccc(Cl)cc2)N(C2CCN(c3n[nH]c(N)n3)CC2)C1 ... fulfilled
2) Nc1n[nH]c(N2CCC(N3CCC(c4ccc(Cl)cc4)C3)CC2)n1 (stereo not given) ... not fulfilled

====

system: Acidic mammalian chitinase (Mus musculus, UniProt Q91XA9)
Sequence (Q91XA9 whole entry): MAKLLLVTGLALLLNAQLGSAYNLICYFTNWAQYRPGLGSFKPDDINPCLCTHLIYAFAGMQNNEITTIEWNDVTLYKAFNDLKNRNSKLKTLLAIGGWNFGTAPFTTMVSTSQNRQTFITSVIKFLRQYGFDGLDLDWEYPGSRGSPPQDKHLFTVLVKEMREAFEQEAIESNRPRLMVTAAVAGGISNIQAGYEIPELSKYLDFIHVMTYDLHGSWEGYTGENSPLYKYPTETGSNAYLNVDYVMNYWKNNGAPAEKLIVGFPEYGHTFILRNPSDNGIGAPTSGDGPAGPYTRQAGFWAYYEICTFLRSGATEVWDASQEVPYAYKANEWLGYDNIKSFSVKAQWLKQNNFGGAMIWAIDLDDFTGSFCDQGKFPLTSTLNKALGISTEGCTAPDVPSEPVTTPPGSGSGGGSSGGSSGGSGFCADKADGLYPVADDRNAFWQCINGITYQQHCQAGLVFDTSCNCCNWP
method summary: Inhibition of full-length C-terminal his-tagged mouse acidic mammalian chitinase expressed in CHO-K1 cells assessed as reduction in chitinolytic activity using 4-methylumbelliferyl-beta-D-N,N'-diacetylchitobioside hydrate as substrate after 60 mins by fluorometric assay
# IC50 per entry
property measured: IC50 (nM)

1) CO[C@@H]1C[C@H](Cc2ccc(Cl)cc2)N(C2CCN(c3n[nH]c(N)n3)CC2)C1 ... 21
2) CS(=O)(=O)NCCN(CCc1ccc(Cl)cc1)C1CCN(c2nc(N)n[nH]2)CC1 ... 22
3) Nc1n[nH]c(N2CCC(N(CCc3ccc(Cl)cc3)CC3CCCCO3)CC2)n1 (stereo not given) ... 56
4) CC(C)(O)CN(CCc1ccc(Cl)cc1)C1CCN(c2nc(N)n[nH]2)CC1 ... 73
5) Nc1n[nH]c(N2CCC(N(CCc3ccc(Cl)cc3)C3COC3)CC2)n1 ... 27
6) COCCN(CCc1ccc(Cl)cc1)C1CCN(c2nc(N)n[nH]2)CC1 ... 55
7) Nc1n[nH]c(N2CCC(N(CCc3ccc(Cl)cc3)CC(=O)O)CC2)n1 ... 395
8) CNC(=O)CN(CCc1ccc(Cl)cc1)C1CCN(c2nc(N)n[nH]2)CC1 ... 1150
9) Nc1nnc(N2CCC(N3C[C@@H](O)C[C@@H]3Cc3ccc(Cl)cc3)CC2)[nH]1 ... 170
10) CO[C@H]1CN(C2CCN(c3nnc(N)[nH]3)CC2)[C@H]1Cc1ccc(Cl)cc1 ... 485
11) Nc1nnc(N2CCC(N3CCOC[C@@H]3Cc3ccc(Cl)cc3)CC2)[nH]1 ... 30
12) Nc1n[nH]c(N2CCC(N(CCO)CCc3ccc(Cl)cc3)CC2)n1 ... 135
13) Nc1n[nH]c(N2CCC(N3CCCC(c4ccc(Cl)cc4)C3)CC2)n1 (stereo not given) ... 335
14) Nc1nnc(N2CCC(N3CCC[C@@H]3Cc3ccc(Cl)cc3)CC2)[nH]1 ... 120
15) CO[C@H](C)CN(CCc1ccc(Cl)cc1)C1CCN(c2nc(N)n[nH]2)CC1 ... 110
16) CC(=O)NCCN(CCc1ccc(Cl)cc1)C1CCN(c2nc(N)n[nH]2)CC1 ... 35
17) CNS(=O)(=O)CCN(CCc1ccc(Cl)cc1)C1CCN(c2nc(N)n[nH]2)CC1 ... 21
18) CNC(=O)NCCN(CCc1ccc(Cl)cc1)C1CCN(c2nc(N)n[nH]2)CC1 ... 130
19) Nc1nc(N2CCC(N3C[C@H](O)C[C@@H]3Cc3ccc(Cl)cc3)CC2)n[nH]1 ... 68
20) CO[C@H]1C[C@H](Cc2ccc(Cl)cc2)N(C2CCN(c3nnc(N)[nH]3)CC2)C1 ... 65

====

system: dopamine transporter (DAT) (Homo sapiens)
Sequence (Q01959 whole entry): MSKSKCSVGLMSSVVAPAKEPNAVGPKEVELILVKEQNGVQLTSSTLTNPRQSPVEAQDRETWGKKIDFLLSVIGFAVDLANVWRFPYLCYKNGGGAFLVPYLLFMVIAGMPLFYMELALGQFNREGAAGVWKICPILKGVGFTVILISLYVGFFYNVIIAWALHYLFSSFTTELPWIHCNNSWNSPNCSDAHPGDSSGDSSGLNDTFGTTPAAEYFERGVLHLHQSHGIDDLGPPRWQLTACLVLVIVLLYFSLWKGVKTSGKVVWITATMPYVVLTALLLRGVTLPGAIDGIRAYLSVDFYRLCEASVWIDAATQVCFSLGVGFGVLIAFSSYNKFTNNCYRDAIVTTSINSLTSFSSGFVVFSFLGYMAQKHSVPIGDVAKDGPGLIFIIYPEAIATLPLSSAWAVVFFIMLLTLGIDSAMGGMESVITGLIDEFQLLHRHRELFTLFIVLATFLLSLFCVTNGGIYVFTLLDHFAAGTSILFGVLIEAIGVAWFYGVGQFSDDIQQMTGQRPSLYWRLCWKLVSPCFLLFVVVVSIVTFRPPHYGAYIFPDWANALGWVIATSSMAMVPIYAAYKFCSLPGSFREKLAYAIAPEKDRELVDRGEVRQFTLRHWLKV
method summary: Displacement of [3H]BTCP from recombinant human dopamine transporter at 10 uM after 120 mins by scintillation counting analysis relative to control
Format: ADME
particulars: probe [3H]BTCP
So basically: inhibition at 2 h, 10 µM at 50% or higher? That is satisfied. Lower than 50%? That is not satisfied.

1. Nc1n[nH]c(N2CCC(N(CCc3ccc(Cl)cc3)CC3CCCO3)CC2)n1 (configuration not stated) ... satisfied
2. Nc1nnc(N2CCC(N3CCOC[C@@H]3Cc3ccc(Cl)cc3)CC2)[nH]1 ... satisfied
3. CS(=O)(=O)NCCN(CCc1ccc(Cl)cc1)C1CCN(c2nc(N)n[nH]2)CC1 ... not satisfied
4. CO[C@@H](C)CN(CCc1ccc(Cl)cc1)C1CCN(c2nc(N)n[nH]2)CC1 ... not satisfied
5. CNS(=O)(=O)CCN(CCc1ccc(Cl)cc1)C1CCN(c2nc(N)n[nH]2)CC1 ... not satisfied
6. CO[C@H]1C[C@H](Cc2ccc(Cl)cc2)N(C2CCN(c3nnc(N)[nH]3)CC2)C1 ... satisfied

====

system: Acidic mammalian chitinase (Mus musculus, UniProt Q91XA9)
method summary: Inhibition of full-length C-terminal his-tagged mouse acidic mammalian chitinase expressed in CHO-K1 cells assessed as reduction in chitinolytic activity using 4-methylumbelliferyl-beta-D-N,N'-diacetylchitobioside hydrate as substrate after 60 mins by fluorometric assay
Below is a list of entries, each paired with its recorded IC50 value.
property measured: IC50 (nM)

1. Nc1n[nH]c(N2CCC(N3CCC(c4ccc(Cl)cc4)C3)CC2)n1 (centres undefined) ... 2600
2. Nc1nnc(N2CCC(N3CCCC[C@@H]3Cc3ccc(Cl)cc3)CC2)[nH]1 ... 81
3. Nc1n[nH]c(N2CCC(N(CCc3ccc(Cl)cc3)CC3CCCO3)CC2)n1 (centres undefined) ... 17
4. CO[C@@H](C)CN(CCc1ccc(Cl)cc1)C1CCN(c2nc(N)n[nH]2)CC1 ... 53

====

method summary: Half-life in BALB/c mouse at 10 mg/kg, po measured after 24 hrs by LC/MS/MS analysis
Type: ADME, organism-based
particulars: in vivo
property measured: half-life (min)

1) Nc1nnc(N2CCC(N3CCOC[C@@H]3Cc3ccc(Cl)cc3)CC2)[nH]1 ... 161

====

system: Acidic mammalian chitinase (Homo sapiens, UniProt Q9BZP6)
Sequence (Q9BZP6 whole entry): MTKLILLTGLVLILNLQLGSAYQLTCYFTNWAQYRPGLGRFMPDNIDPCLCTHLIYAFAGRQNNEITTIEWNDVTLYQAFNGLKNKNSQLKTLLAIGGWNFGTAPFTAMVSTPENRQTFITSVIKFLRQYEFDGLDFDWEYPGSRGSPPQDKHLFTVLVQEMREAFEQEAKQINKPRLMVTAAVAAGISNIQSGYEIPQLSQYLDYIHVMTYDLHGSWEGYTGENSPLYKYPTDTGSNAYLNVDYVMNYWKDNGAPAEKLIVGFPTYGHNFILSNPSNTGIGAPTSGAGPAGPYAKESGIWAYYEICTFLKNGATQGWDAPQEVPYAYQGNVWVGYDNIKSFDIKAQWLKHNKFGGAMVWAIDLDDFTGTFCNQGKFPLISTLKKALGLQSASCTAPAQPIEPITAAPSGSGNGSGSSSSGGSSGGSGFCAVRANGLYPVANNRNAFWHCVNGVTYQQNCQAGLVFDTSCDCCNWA
method summary: Inhibition of full-length C-terminal his-tagged human acidic mammalian chitinase expressed in CHOK1 cells assessed as reduction in chitinolytic activity using 4-methylumbelliferyl-beta-D-N,N-diacetylchitobioside hydrate as substrate after 60 mins by fluorometric assay
property measured: IC50

1) Nc1nnc(N2CCC(N3CCCC[C@@H]3Cc3ccc(Cl)cc3)CC2)[nH]1 ... 23 nM
2) Nc1nnc(N2CCC(N3CCOC[C@@H]3Cc3ccc(Cl)cc3)CC2)[nH]1 ... 22 nM

====

Listed here: items and their measured pIC50.
system: Voltage-gated inwardly rectifying potassium channel KCNH2 (Homo sapiens, UniProt Q12809)
Sequence (Q12809 whole entry): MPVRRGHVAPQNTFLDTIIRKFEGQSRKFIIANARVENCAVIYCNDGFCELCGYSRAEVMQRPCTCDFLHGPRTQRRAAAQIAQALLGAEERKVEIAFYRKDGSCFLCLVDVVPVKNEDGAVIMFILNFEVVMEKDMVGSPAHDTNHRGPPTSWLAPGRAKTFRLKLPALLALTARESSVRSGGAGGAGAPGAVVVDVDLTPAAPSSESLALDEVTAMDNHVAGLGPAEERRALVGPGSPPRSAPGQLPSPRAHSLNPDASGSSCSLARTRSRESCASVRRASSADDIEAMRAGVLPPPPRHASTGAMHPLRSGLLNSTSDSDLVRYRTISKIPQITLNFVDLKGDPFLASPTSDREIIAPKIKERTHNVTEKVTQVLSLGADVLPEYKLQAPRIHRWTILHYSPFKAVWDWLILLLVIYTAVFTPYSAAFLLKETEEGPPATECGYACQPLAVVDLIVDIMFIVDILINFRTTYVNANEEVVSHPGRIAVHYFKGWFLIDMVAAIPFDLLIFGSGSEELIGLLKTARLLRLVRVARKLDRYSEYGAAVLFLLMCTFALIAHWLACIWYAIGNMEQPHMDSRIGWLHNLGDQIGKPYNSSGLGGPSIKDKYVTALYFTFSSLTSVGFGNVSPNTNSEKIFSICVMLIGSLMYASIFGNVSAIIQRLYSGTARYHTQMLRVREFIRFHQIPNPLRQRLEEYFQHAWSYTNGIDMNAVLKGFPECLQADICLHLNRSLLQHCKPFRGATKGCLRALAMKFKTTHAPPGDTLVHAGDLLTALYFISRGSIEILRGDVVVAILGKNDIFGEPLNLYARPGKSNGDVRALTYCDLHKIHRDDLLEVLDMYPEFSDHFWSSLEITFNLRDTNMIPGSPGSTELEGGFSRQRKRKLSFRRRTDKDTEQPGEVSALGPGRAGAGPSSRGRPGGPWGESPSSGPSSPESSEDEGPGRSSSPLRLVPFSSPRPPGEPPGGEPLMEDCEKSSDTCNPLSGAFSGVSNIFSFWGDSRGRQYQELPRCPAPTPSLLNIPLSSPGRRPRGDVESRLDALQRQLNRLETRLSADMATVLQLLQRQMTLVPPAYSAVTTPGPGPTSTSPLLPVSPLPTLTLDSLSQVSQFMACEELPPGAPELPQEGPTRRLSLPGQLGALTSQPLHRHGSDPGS
method summary: Displacement of Tracer Red from human ERG by fluorescence polarization assay
pIC50: −log10 of the molar value.
property measured: pIC50

1. CC(C)(O)CN(CCc1ccc(Cl)cc1)C1CCN(c2nc(N)n[nH]2)CC1 ... 4.72
2. COC(C)(C)CN(CCc1ccc(Cl)cc1)C1CCN(c2nc(N)n[nH]2)CC1 ... 5.46
3. CO[C@@H](C)CN(CCc1ccc(Cl)cc1)C1CCN(c2nc(N)n[nH]2)CC1 ... 4.75
4. Nc1n[nH]c(N2CCC(N(CCc3ccc(Cl)cc3)CC(=O)O)CC2)n1 ... 5.10
5. Nc1nnc(N2CCC(N3CCC[C@@H]3Cc3ccc(Cl)cc3)CC2)[nH]1 ... 5.40
6. Nc1nnc(N2CCC(N3CCCC[C@@H]3Cc3ccc(Cl)cc3)CC2)[nH]1 ... 5.08
7. Nc1nnc(N2CCC(N3C[C@@H](O)C[C@@H]3Cc3ccc(Cl)cc3)CC2)[nH]1 ... 4.88
8. Nc1n[nH]c(N2CCC(N(CCc3ccc(Cl)cc3)C3COC3)CC2)n1 ... 5.36
9. Nc1nnc(N2CCC(N3CCOC[C@@H]3Cc3ccc(Cl)cc3)CC2)[nH]1 ... 4.41
10. Nc1n[nH]c(N2CCC(N(CCc3ccc(Cl)cc3)CC3CCCO3)CC2)n1 (configuration not stated) ... 4.82
11. CNC(=O)CN(CCc1ccc(Cl)cc1)C1CCN(c2nc(N)n[nH]2)CC1 ... 5.59
12. Nc1n[nH]c(N2CCC(N(CCO)CCc3ccc(Cl)cc3)CC2)n1 ... 5.20
